Tested on: HIV-1 LAI
assayOverview: Treatment of HIV-1-infected MT-2 cells with nucleoside analogues, p24 ELISA
Format: cell-based
conditions: Human immunodeficiency virus 1, MT2, read-out: EC50 against HIV, against HIV, strain not stated, 'in the range of'
readoutType: EC50

[ask] Please indicate EC50 recorded for NC1=NC(=O)N([C@H]2C[C@H](O)[C@@H](CO)O2)CN1
[reply] ~0.01 µM
